- System: HepaRG spheroids
- test: Combined HCI (HCS) and cellular ATP 3D assay in HepaRG spheroids
- assay.context: HepaRG; HCS endpoints; cut-off <25x Avg Cmax
endpoint.label: HepaRG <25x Avg Cmax HCS

> print(dat)
                                   compound  result
1  Cc1c(C)c2c(c(C)c1O)CCC(C)(COc1ccc(CC3SC(=O)NC3=O)cc1)O2 (stereo not drawn) [troglitazone, reference compound]     +ve
2  Cc1cc2c(cc1CC(=O)c1sccc1S(=O)(=O)Nc1onc(C)c1Cl)OCO2 [sitaxsentan]     +ve
3  O=C1CN(/N=C/c2ccc([N+](=O)[O-])o2)C(=O)N1 [nitrofurantoin, reference compound]     +ve
